Ratio values by entry
- Study Target: Endothelin receptor, ET-A/ET-B (Homo sapiens) (UniProt P24530+P25101)
- Sequence (P24530 whole entry, looked up): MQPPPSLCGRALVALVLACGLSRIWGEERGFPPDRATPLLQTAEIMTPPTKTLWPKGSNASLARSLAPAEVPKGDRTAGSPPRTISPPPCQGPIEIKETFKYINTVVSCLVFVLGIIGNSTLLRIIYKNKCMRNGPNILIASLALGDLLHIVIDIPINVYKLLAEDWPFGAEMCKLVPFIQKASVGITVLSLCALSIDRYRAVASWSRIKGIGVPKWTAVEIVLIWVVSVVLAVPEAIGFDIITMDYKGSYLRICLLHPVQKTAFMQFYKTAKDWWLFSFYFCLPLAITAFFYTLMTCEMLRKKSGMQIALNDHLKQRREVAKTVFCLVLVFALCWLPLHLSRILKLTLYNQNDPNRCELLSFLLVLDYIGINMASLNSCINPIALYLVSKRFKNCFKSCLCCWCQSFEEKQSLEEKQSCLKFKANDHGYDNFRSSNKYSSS
- Sequence (P25101 whole entry, looked up): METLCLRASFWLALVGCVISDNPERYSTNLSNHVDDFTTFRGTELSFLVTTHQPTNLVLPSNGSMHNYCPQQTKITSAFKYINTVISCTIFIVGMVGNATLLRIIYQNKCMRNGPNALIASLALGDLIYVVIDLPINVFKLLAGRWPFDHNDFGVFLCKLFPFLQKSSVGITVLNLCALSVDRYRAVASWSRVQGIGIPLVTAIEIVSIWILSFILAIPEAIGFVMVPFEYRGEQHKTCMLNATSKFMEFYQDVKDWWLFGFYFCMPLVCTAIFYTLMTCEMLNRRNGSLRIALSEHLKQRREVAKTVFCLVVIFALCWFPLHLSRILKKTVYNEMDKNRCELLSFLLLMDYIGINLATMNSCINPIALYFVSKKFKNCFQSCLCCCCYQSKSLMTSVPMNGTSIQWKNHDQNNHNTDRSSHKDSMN
- Protocol Notes: Ratio of binding affinity at Endothelin-A receptors compared to Endothelin-B receptors.
- Assay type: protein assay
Just the number, please, no unit attached.

Consider the reported Ratio for these compounds:
| Compound | Ratio |
| --- | --- |
| Cn1cc(C(C(=O)NS(=O)(=O)c2ccc(Cl)cc2)c2ccc3c(c2)OCO3)c2ccc(C(N)=O)cc21 (stereo not drawn) | 146 |
| CCn1cc(C(C(=O)NS(=O)(=O)c2ccc(C(C)C)cc2)c2ccc3c(c2)OCO3)c2ccc(C(=O)N(C)C)cc21 (stereo not drawn) | 6.6 |
| COc1ccc(S(=O)(=O)NC(=O)C(c2ccc3c(c2)OCO3)c2cn(C)c3cc(C(N)=O)ccc23)cc1 (stereo not drawn) | 34 |
| CC(C)c1ccc(S(=O)(=O)NC(=O)C(c2ccc3c(c2)OCO3)c2cn(C)c3cc(C(N)=O)ccc23)cc1 (stereo not drawn) | 14.8 |
| CC(C)c1ccc(S(=O)(=O)NC(=O)C(c2ccc3c(c2)OCO3)c2cn(C)c3cc(C(=O)O)ccc23)cc1 (stereo not drawn) | 68.2 |
| CC(C)c1ccc(S(=O)(=O)NC(=O)C(c2ccc3c(c2)OCO3)c2cn(C)c3cc(CN)ccc23)cc1 (stereo not drawn) | 5.4 |
| CCn1cc(C(C(=O)NS(=O)(=O)c2ccc(C(C)C)cc2)c2ccc3c(c2)OCO3)c2ccc(C(=O)NC)cc21 (stereo not drawn) | 7 |

Please look at the following compound next.
QUERY: Please report Ratio with Endothelin receptor, ET-A/ET-B (Homo sapiens) (UniProt P24530+P25101) for item CCn1cc(C(C(=O)NS(=O)(=O)c2ccc(C(C)C)cc2)c2ccc3c(c2)OCO3)c2ccc(C(=O)O)cc21 (stereo not drawn) .
RESULT: 68.8

src = ChEMBL document CHEMBL1135360
